- target_or_system: UniProt P15538
- Sequence (P15538 whole entry): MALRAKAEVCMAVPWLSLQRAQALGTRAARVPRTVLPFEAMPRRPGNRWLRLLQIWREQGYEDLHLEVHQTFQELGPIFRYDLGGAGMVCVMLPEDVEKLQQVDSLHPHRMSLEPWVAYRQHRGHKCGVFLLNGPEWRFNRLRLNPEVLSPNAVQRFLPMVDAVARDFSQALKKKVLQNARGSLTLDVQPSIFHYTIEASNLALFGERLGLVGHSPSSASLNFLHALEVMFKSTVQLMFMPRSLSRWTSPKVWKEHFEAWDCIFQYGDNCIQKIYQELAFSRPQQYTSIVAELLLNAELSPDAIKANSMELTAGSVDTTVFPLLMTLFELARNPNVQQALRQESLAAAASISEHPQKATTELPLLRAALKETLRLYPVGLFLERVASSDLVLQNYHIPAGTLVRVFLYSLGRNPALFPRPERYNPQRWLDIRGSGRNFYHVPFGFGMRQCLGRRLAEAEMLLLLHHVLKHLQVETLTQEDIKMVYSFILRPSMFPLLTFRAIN
measured_metric: pIC50
Units for pIC50: none; it is -log10 of a concentration expressed in mol/L.

q: Sample O=c1cc(Cn2ccnc2)c2ccc(Oc3ccc(F)c(F)c3)cc2o1 — what was its pIC50?
a: 6.03
